# test-system: NAD-dependent protein deacetylase sirtuin-1 (Homo sapiens) (UniProt Q96EB6)
# Sequence (whole entry): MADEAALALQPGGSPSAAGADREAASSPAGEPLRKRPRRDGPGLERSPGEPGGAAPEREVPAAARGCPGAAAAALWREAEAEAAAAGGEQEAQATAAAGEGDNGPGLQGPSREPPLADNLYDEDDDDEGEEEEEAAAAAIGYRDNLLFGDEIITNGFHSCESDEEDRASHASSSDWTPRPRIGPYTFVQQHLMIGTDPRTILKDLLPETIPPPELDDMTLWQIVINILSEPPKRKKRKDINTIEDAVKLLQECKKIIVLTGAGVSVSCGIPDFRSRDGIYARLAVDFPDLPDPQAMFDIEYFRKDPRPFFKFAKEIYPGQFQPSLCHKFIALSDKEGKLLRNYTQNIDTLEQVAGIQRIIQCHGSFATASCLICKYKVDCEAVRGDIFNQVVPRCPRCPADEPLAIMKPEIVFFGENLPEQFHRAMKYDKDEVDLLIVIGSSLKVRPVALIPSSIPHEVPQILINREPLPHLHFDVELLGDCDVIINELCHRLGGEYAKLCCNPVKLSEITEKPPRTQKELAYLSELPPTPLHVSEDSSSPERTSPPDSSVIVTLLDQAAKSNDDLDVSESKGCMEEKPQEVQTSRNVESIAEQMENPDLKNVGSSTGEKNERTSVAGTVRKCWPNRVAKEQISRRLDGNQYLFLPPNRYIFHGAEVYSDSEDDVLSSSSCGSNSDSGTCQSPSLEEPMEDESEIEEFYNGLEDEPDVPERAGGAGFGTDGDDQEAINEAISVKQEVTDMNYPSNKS
# test-method-notes: Activation of human SIRT1 expressed in Escherichia coli BL21 (DE3) assessed as concentration required to increase 50% enzyme activity by fluorescence polarization assay
measurement-name: EC1.5

Worked cases, answers included:
• COc1ccc(C(=O)Nc2ccccc2-c2nc3ncccc3o2)cc1OC = 0.9 µM
• COc1ccc(C(=O)Nc2ccc(-c3nc4ncccc4o3)cc2)cc1OC = > 100 µM
• COc1ccc(C(=O)Nc2cccc(-c3nc4ncccc4[nH]3)c2)c(OC)c1 = 0.5 µM

Kindly consider the entry below.
Consider the molecule COc1ccc(C(=O)Nc2ccccc2-c2nc3ccccc3[nH]2)cc1CN1CCOCC1 tested on NAD-dependent protein deacetylase sirtuin-1 (Homo sapiens) (UniProt Q96EB6); state its EC1.5. 0.5 µM
